Please go through the items and note down their IC50.
system: OVCAR3 cells; assay: XTT cytotoxicity assay, OVCAR3 (OV); assay type: cell-based; settings: Homo sapiens, OVCAR-3
Numbers only, in µg/mL.

# annotated cases, reported IC50 shown
{"columns": ["compound", "IC50 (µg/mL)"],
 "data": [
  ["CCCCCCCCOc1ccc(NC(=O)COC2=CC(=O)SC2(C)CCCCCCCC)cc1 (stereo not drawn)", 67],
  ["CCCCCCCCC1(C)SC(=O)C=C1OCC(=O)Nc1ccc(C)cc1 (stereo not drawn)", 8.1],
  ["CCCCCCCCC1(C)SC(=O)C=C1OCC(=O)Nc1ccc(C(F)(F)F)cc1 (stereo not drawn)", 4],
  ["CCCCCCCCC1(C)SC(=O)C=C1OCC(=O)Nc1ccc(Cl)cc1 (stereo not drawn)", 9.2],
  ["CCCCCCCCC1(C)SC(=O)C=C1OCC(=O)Nc1ccccc1 (stereo not drawn)", 12.1],
  ["CCCCCCCCC1(C)SC(=O)C=C1OCC(=O)Nc1ccccc1SC (stereo not drawn)", 43.8]
]}

Batch lookup, IC50 per entry.
1. CCCCCCCCC1(C)SC(=O)C=C1OCC(=O)Nc1ccc(Cl)cc1C(F)(F)F (stereo not drawn)
2. CCCCCCCCC1(C)SC(=O)C=C1OCC(=O)Nc1ccc(SC)cc1 (stereo not drawn)
3. CCCCCCCCC1(C)SC(=O)C=C1OCC(=O)Nc1ccc(Oc2ccc(Cl)cc2)cc1 (stereo not drawn)
4. CCCCCCCCC1(C)SC(=O)C=C1OCC(=O)Nc1cccc(OC(F)(F)F)c1 (stereo not drawn)
5. CCCCCCCCC1(C)SC(=O)C=C1OCC(=O)Nc1ccc2c(c1)OCO2 (stereo not drawn)
6. CCCCCCCCC1(C)OC(=O)C=C1OCC(=O)Nc1ccc(Cl)cc1 (stereo not drawn)
7. CCCCCCCCC1(C)SC(=O)C=C1OCC(=O)Nc1ccc(C(N)=O)cc1 (stereo not drawn)
8. CCCCCCCCC1(C)SC(=O)C=C1OCC(=O)Nc1cccc(C(F)(F)F)c1 (stereo not drawn)

Given back:
1. 24
2. 16.9
3. 5
4. 11.6
5. 9.3
6. 9.2
7. 21.5
8. 11

Need IC50 for each of these compounds.
1. CCCCCCCC[C@]1(C)SC(=O)C=C1OCC(=O)Nc1ccccc1C(F)(F)F
2. CCCCCCCCC1(C)SC(=O)C=C1OCC(=O)Nc1ccccc1N1CCCCC1 (stereo not drawn)
3. CCCCCCCCC1(C)SC(=O)C=C1OCC(=O)Nc1ccc(S(N)(=O)=O)cc1 (stereo not drawn)
4. CCCCCCCCC1(C)SC(=O)C=C1OCC(=O)N1CCN(c2ccc(Cl)cc2)CC1 (stereo not drawn)

Given back:
1. 24.1
2. 15.5
3. 13.4
4. 24.4
